Source listed as ChEMBL document CHEMBL4041534.

assay: Equilibrium aqueous solubility of the compound by microsol method; type: physicochemical
measured_parameter: solubility thermodynamic (µg/mL)

molecule="CC(=O)c1ccc(-n2c(=O)n3n(c2=O)C2C(=CC3)C(C)(C)Oc3cc(O)ccc32)cc1 (stereo not drawn)" value_reported=162
molecule="COc1cc(OC)cc(-n2c(=O)n3n(c2=O)C2C(=CC3)C(C)(C)Oc3cc(O)ccc32)c1 (stereo not drawn)" value_reported=65.1
molecule="CC1(C)Oc2cc(O)ccc2C2C1=CCn1c(=O)n(-c3ccccc3)c(=O)n12 (stereo not drawn)" value_reported=23.5

----------
Entries and their remaining at 0.5 h
test: Stability in human liver microsomes assessed as compound remaining preincubated for 5 mins followed by NADPH addition measured after 30 mins LC/MS/MS method; assay type: ADME, microsome; conditions: read-out: Stability
measured_parameter: remaining at 0.5 h

compound="CC1(C)Oc2cc(O)ccc2C2C1=CCn1c(=O)n(-c3ccccc3)c(=O)n12 (stereo not drawn)" measured_parameter="remaining at 0.5 h" value_reported=0.82%
compound="COc1cc(OC)cc(-n2c(=O)n3n(c2=O)C2C(=CC3)C(C)(C)Oc3cc(O)ccc32)c1 (stereo not drawn)" measured_parameter="remaining at 0.5 h" value_reported=41.2%
compound="CC(=O)c1ccc(-n2c(=O)n3n(c2=O)C2C(=CC3)C(C)(C)Oc3cc(O)ccc32)cc1 (stereo not drawn)" measured_parameter="remaining at 0.5 h" value_reported=30.2%

----------
assay: Cytotoxicity against mouse RAW264.7 cells assessed as cell viability at 10 uM in presence of LPS measured after 24 hrs by WST assay relative to control; assay type: cell-based; conditions: read-out: Activity
measured_parameter: viability at 24 h, 10 µM (%)

compound="COc1cc(OC)cc(-n2c(=O)n3n(c2=O)C2C(=CC3)C(C)(C)Oc3cc(O)ccc32)c1 (stereo unspecified)" endpoint_unit=% value_reported=121
compound="CCCCc1ccc(-n2c(=O)n3n(c2=O)C2C(=CC3)C(C)(C)Oc3cc(O)ccc32)cc1 (stereo unspecified)" endpoint_unit=% value_reported=50
compound="COc1cccc(-n2c(=O)n3n(c2=O)C2C(=CC3)C(C)(C)Oc3cc(O)ccc32)c1 (stereo unspecified)" endpoint_unit=% value_reported=118
compound="CC(=O)c1ccc(-n2c(=O)n3n(c2=O)C2C(=CC3)C(C)(C)Oc3cc(O)ccc32)cc1 (stereo unspecified)" endpoint_unit=% value_reported=111
compound="CC1(C)Oc2cc(O)ccc2C2C1=CCn1c(=O)n(-c3ccccc3I)c(=O)n12 (stereo unspecified)" endpoint_unit=% value_reported=109
compound="CC1(C)Oc2cc(O)ccc2C2C1=CCn1c(=O)n(-c3ccccc3)c(=O)n12 (stereo unspecified)" endpoint_unit=% value_reported=105
compound="Cc1ccc(-n2c(=O)n3n(c2=O)C2C(=CC3)C(C)(C)Oc3cc(O)ccc32)cc1 (stereo unspecified)" endpoint_unit=% value_reported=130
compound="CC1(C)Oc2cc(O)ccc2C2C1=CCn1c(=O)n(C3CCCCC3)c(=O)n12 (stereo unspecified)" endpoint_unit=% value_reported=117
compound="COc1ccc(-n2c(=O)n3n(c2=O)C2C(=CC3)C(C)(C)Oc3cc(O)ccc32)cc1 (stereo unspecified)" endpoint_unit=% value_reported=127
compound="COc1ccccc1-n1c(=O)n2n(c1=O)C1C(=CC2)C(C)(C)Oc2cc(O)ccc21 (stereo unspecified)" endpoint_unit=% value_reported=115
compound="CC1(C)Oc2cc(O)ccc2C2C1=CCn1c(=O)n(Cc3ccccc3)c(=O)n12 (stereo unspecified)" endpoint_unit=% value_reported=106

----------
Entries and their viability at 24 h, 10 µM
test: Cytotoxicity against mouse RAW264.7 cells assessed as cell viability at 10 uM in presence of LPS measured after 24 hrs by WST assay relative to control; assay type: cell-based; conditions: read-out: Activity
measured_parameter: viability at 24 h, 10 µM (%)

compound="CC1(C)Oc2cc(O)ccc2C2C1=CCn1c(=O)n(-c3ccc4c(c3)OCO4)c(=O)n12 (stereo not given)" measured_parameter="viability at 24 h, 10 µM" value_reported=121
compound="CC1(C)Oc2cc(O)ccc2C2C1=CCn1c(=O)n(-c3ccc(C(C)(C)C)cc3)c(=O)n12 (stereo not given)" measured_parameter="viability at 24 h, 10 µM" value_reported=105
compound="CC1(C)Oc2cc(O)ccc2C2C1=CCn1c(=O)n(-c3ccc(C(F)(F)F)cc3)c(=O)n12 (stereo not given)" measured_parameter="viability at 24 h, 10 µM" value_reported=106
compound="Cn1c(=O)n2n(c1=O)C1C(=CC2)C(C)(C)Oc2cc(O)ccc21 (stereo not given)" measured_parameter="viability at 24 h, 10 µM" value_reported=114
compound="CC1(C)Oc2cc(O)ccc2C2C1=CCn1c(=O)n(-c3ccc(F)cc3)c(=O)n12 (stereo not given)" measured_parameter="viability at 24 h, 10 µM" value_reported=109

----------
target: UniProt:P63158; assay: Inhibition of HMGB1 translocation from nucleus to cytosol in LPS-stimulated mouse RAW264.7 cells assessed as inhibition of TNF-alpha production at 10 uM measured after 4 hrs by ELISA relative to control
Entries and their inhibition
measured_parameter: inhibition (%)

compound="COc1ccc(-n2c(=O)n3n(c2=O)C2C(=CC3)C(C)(C)Oc3cc(O)ccc32)cc1 (stereo not drawn)" value_reported=44
compound="COc1cccc(-n2c(=O)n3n(c2=O)C2C(=CC3)C(C)(C)Oc3cc(O)ccc32)c1 (stereo not drawn)" value_reported=38
compound="CC1(C)Oc2cc(O)ccc2C2C1=CCn1c(=O)n(-c3ccc(F)cc3)c(=O)n12 (stereo not drawn)" value_reported=44
compound="COc1cc(OC)cc(-n2c(=O)n3n(c2=O)C2C(=CC3)C(C)(C)Oc3cc(O)ccc32)c1 (stereo not drawn)" value_reported=60
compound="CC1(C)Oc2cc(O)ccc2C2C1=CCn1c(=O)n(-c3ccccc3)c(=O)n12 (stereo not drawn)" value_reported=43
compound="Cc1ccc(-n2c(=O)n3n(c2=O)C2C(=CC3)C(C)(C)Oc3cc(O)ccc32)cc1 (stereo not drawn)" value_reported=45
compound="CC1(C)Oc2cc(O)ccc2C2C1=CCn1c(=O)n(-c3ccc4c(c3)OCO4)c(=O)n12 (stereo not drawn)" value_reported=46
compound="CC(=O)c1ccc(-n2c(=O)n3n(c2=O)C2C(=CC3)C(C)(C)Oc3cc(O)ccc32)cc1 (stereo not drawn)" value_reported=68

----------
Entries and their inhibition
target: High mobility group protein B1 (Mus musculus) (UniProt P63158); assay: Inhibition of HMGB1 translocation from nucleus to cytosol in LPS-stimulated mouse RAW264.7 cells assessed as inhibition of NO release at 10 uM measured after 24 hrs by Griess assay relative to control
Sequence (P63158 whole entry): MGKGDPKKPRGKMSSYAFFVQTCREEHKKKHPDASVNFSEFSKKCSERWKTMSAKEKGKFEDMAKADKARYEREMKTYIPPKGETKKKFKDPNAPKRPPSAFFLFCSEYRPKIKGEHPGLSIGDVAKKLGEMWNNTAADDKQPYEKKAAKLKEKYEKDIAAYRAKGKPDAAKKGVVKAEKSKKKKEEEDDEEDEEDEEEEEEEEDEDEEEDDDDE
measured_parameter: inhibition

compound="CC(=O)N1CCC2(CC1)Oc1cc(O)ccc1C1C2=CCn2c(=O)n(-c3ccccc3)c(=O)n21 (stereo not drawn)" measured_parameter=inhibition value_reported=36%
compound="CC1(C)Oc2cc(O)ccc2C2C1=CCn1c(=O)n(C3CCCCC3)c(=O)n12 (stereo not drawn)" measured_parameter=inhibition value_reported=63%
compound="CC1(C)Oc2cc(O)ccc2C2C1=CCn1c(=O)n(-c3ccc(C(C)(C)C)cc3)c(=O)n12 (stereo not drawn)" measured_parameter=inhibition value_reported=99%

----------
assay: Stability in mouse liver microsomes assessed as compound remaining preincubated for 5 mins followed by NADPH addition measured after 30 mins LC/MS/MS method; format: ADME, microsome; conditions: read-out: Stability
measured_parameter: remaining at 0.5 h (%)

compound="CC(=O)c1ccc(-n2c(=O)n3n(c2=O)C2C(=CC3)C(C)(C)Oc3cc(O)ccc32)cc1 (stereo not drawn)" measured_parameter="remaining at 0.5 h" value_reported=2.46
compound="COc1cc(OC)cc(-n2c(=O)n3n(c2=O)C2C(=CC3)C(C)(C)Oc3cc(O)ccc32)c1 (stereo not drawn)" measured_parameter="remaining at 0.5 h" value_reported=20.2
compound="CC1(C)Oc2cc(O)ccc2C2C1=CCn1c(=O)n(-c3ccccc3)c(=O)n12 (stereo not drawn)" measured_parameter="remaining at 0.5 h" value_reported=0.41

----------
target: High mobility group protein B1 (Mus musculus); assay: Inhibition of HMGB1 translocation from nucleus to cytosol in LPS-stimulated mouse RAW264.7 cells assessed as inhibition of NO release at 10 uM measured after 24 hrs by Griess assay relative to control
Calls of active or inactive are those of the source. No cut-off for these calls is given here.
measured_parameter: inhibition

molecule="CC1(C)Oc2cc(O)ccc2C2C1=CCn1c(=O)n(-c3ccc(F)cc3)c(=O)n12 (centres undefined)" value_reported=87%
molecule="CC1(C)Oc2cc(O)ccc2C2C1=CCn1c(=O)n(Cc3ccccc3)c(=O)n12 (centres undefined)" value_reported=70%
molecule="COc1cc(OC)cc(-n2c(=O)n3n(c2=O)C2C(=CC3)C(C)(C)Oc3cc(O)ccc32)c1 (centres undefined)" value_reported=94%
molecule="CCCN1CCC2(CC1)Oc1cc(O)ccc1C1C2=CCn2c(=O)n(-c3ccccc3)c(=O)n21 (centres undefined)" value_reported=47%
molecule="COc1ccc2c(c1O)OC(C)(C)C1=CCn3c(=O)n(-c4ccccc4)c(=O)n3C12 (centres undefined)" value_reported=26%
molecule="CC1(C)Oc2cc(O)ccc2C2C1=CCn1c(=O)n(-c3ccccc3I)c(=O)n12 (centres undefined)" value_reported=48%
molecule="CCCCc1ccc(-n2c(=O)n3n(c2=O)C2C(=CC3)C(C)(C)Oc3cc(O)ccc32)cc1 (centres undefined)" value_reported=99%
molecule="COc1cccc(-n2c(=O)n3n(c2=O)C2C(=CC3)C(C)(C)Oc3cc(O)ccc32)c1 (centres undefined)" value_reported=96%
molecule="COc1ccc2c(c1)OC(C)(C)C1=CCn3c(=O)n(-c4ccccc4)c(=O)n3C12 (centres undefined)" value_reported=44%
molecule="COc1ccc(-n2c(=O)n3n(c2=O)C2C(=CC3)C(C)(C)Oc3cc(O)ccc32)cc1 (centres undefined)" value_reported=89%
molecule="CC(=O)c1ccc(-n2c(=O)n3n(c2=O)C2C(=CC3)C(C)(C)Oc3cc(O)ccc32)cc1 (centres undefined)" value_reported=93%
molecule="Cn1c(=O)n2n(c1=O)C1C(=CC2)C(C)(C)Oc2cc(O)ccc21 (centres undefined)" value_reported=45%
molecule="COc1ccccc1-n1c(=O)n2n(c1=O)C1C(=CC2)C(C)(C)Oc2cc(O)ccc21 (centres undefined)" value_reported=66%
molecule="CNc1ccc2c(c1)OC(C)(C)C1=CCn3c(=O)n(-c4ccccc4)c(=O)n3C12 (centres undefined)" value_reported=52%
molecule="Cc1ccc(-n2c(=O)n3n(c2=O)C2C(=CC3)C(C)(C)Oc3cc(O)ccc32)cc1 (centres undefined)" value_reported=94%
molecule="CC1(C)Oc2cc(O)ccc2C2C1=CCn1c(=O)n(-c3ccccc3)c(=O)n12 (centres undefined)" value_reported=87%
molecule="CC1(C)Oc2cc(O)ccc2C2C1=CCn1c(=O)n(-c3ccc4c(c3)OCO4)c(=O)n12 (centres undefined)" value_reported=92%
molecule="CC1(C)Oc2cc(O)ccc2C2C1C=Cn1c(=O)n(-c3ccccc3)c(=O)n12 (centres undefined)" value_reported=inactive
molecule="CC1(C)Oc2cc(O)ccc2C2C1CCn1c(=O)n(-c3ccccc3)c(=O)n12 (centres undefined)" value_reported=inactive
